These measurements were taken from patent US7345180B2.

Target Desc: UniProtKB P27487
Sequence (P27487 39-766 limits assumed): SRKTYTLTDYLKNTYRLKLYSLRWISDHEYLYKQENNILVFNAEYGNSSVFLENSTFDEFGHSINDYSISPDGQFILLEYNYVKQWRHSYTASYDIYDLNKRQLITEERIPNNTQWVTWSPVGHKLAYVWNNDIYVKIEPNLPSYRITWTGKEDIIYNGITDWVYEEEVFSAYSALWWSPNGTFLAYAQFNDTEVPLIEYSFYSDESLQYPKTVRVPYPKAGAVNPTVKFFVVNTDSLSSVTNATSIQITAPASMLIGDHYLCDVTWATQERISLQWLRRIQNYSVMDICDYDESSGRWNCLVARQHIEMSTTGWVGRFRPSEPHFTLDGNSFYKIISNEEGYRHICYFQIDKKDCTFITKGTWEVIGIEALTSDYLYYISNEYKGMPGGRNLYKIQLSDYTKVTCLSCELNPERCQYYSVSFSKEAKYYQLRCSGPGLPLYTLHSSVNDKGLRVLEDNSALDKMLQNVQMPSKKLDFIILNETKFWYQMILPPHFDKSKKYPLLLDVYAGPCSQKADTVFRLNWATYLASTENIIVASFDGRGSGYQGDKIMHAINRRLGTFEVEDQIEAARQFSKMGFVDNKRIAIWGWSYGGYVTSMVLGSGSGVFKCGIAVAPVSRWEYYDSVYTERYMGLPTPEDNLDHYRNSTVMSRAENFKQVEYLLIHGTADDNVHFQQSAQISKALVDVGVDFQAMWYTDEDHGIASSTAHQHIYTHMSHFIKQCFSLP
Method: DPP-IV inhibition, Gly-Pro-MCA substrate, human plasma as enzyme source (Pharmacological Test Example 1)
Condition Info: 30 minutes at room temperature
Value Kind: IC50 (nM)

compound="CC(C)Cn1ccc2cc(C(=O)NCC(C)(C)NCC(=O)N3CCC[C@H]3C#N)ccc21 [Example 32]" value_kind=IC50 readout_number=48
compound="CC(C)(CC(=O)N1Cc2ccc(C(F)(F)F)cc2C1)NCC(=O)N1CCC[C@H]1C#N [Example 72]" value_kind=IC50 readout_number=39
compound="CC(C)(CC(=O)N1Cc2ccc(C(C)(C)C)cc2C1)NCC(=O)N1CCC[C@H]1C#N [Example 66]" value_kind=IC50 readout_number=50
